meta.source: patent US10058563B2

Assay: Solubility in different solvents
Format: physicochemical
Settings: dimethylsulfoxide, organic solvent or mixture; read-out: Solubility
Parameter: solubility

Q: I have this molecule here, CC#C[C@]1(O)CC[C@H]2[C@@H]3CCC4=CC(=O)CCC4=C3[C@@H](c3ccc4c(c3)OCO4)C[C@@]21C , and I need its recorded solubility.
Ans: > 100 mg/mL

---

Assay: Solubility in different solvents
Format: physicochemical
Conditions: water; read-out: Solubility
Protocol: The solubility of (11β,17β)-11-(1,3-benzodioxol-5-yl)-17-hydroxy-17-(1-propynyl)estra-4,9-dien-3-one is determined in different solvents. These solutions can be of use for clinical treatment with the advantages as mentioned above.
Parameter: solubility (µg/mL)
Numbers only here, please. The scale is µg/mL.

Q: I have this molecule here, CC#C[C@]1(O)CC[C@H]2[C@@H]3CCC4=CC(=O)CCC4=C3[C@@H](c3ccc4c(c3)OCO4)C[C@@]21C , and I need its recorded solubility.
Ans: 3
